Reported values of % Change Compared to pH 7.4 + Calcium for individual entries
assayed.target: T1, recombinant, soluble human ASGR-1 (human, UniProt P07306 62-291)
T1 construct: biotinylated in the binning assay; also called soluble huASGR-1; Soluble ASGR-1 (Amgen)
T1 sequence: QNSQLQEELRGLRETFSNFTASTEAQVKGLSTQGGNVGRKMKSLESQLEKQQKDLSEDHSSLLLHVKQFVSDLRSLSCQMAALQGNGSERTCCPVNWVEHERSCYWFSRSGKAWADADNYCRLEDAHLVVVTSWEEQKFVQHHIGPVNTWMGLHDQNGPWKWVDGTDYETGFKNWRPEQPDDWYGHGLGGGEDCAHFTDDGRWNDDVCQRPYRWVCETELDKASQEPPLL
protocol.summary: Octet BLI dissociation, pH 5.6 minus calcium
Express the result in % but write the number alone.

Prompt line: Supply % Change Compared to pH 7.4 + Calcium value. Item: 193C7 (antibody, V domains shown, hybridoma mAb) VH: QVQLVESGGGVVQPGRSLRLSCAASGFTFSSYGMHWVRQAPGKGLEWVAVIWYDGSNKNYADSVKGRFTISRDNSKNTLYLQMNSLRAEDTAMYYCARDQGVGYDGLDVWGQGTSVTVSS VL: DIQMTQSPSSLSASVGDRVTITCRASQGIGKYLAWFQQKPGKAPKSLIYAASSLQSGVPSKFSGSGSGTDFTLTISSLQPEDFATYYCQQYSTYPLTFGGGTKVEIK
Response line: -8

Prompt line: Supply % Change Compared to pH 7.4 + Calcium value. Item: 74B2 (antibody, V domains shown, hybridoma mAb) VH: QVQLQQWGAGLLKPSEPLSLTCAVYGGSFSGPYWSWIRQPPGKGLEWIGEINHSGSTNYNPSLTSRVTISVDTSKNQFSLKLTSVTAADSAVYYCARDYGGLDVWGQGTTVTVSS VL: ELVLTQSPGTLSLSPGERATLSCRASQNIYSSYLAWYQQKPGQAPRLLIYGASSRATGIPDRFSGSGSGTDFTLTISRLEPEDFAVYCCQQYESSPWTFGQGTKVEIK
Response line: -5

Prompt line: Supply % Change Compared to pH 7.4 + Calcium value. Item: 176H4 (antibody, V domains shown, hybridoma mAb) VH: QVQLVESGGGVVQPGRSLRLSCAASGFTFSSYGMHWVRQAPGKGLEWVAIIWYDGSYKYYADSVKGRFTISRDNSKNTLYLQMSSLRAEDTAVYYCARDAHDFWSGYFAYWGQGALVTVSS VL: DIVMTQTPLSLSVTPGQPASISCKSSQSLLHGDGKTYLYWYLQKPGQPPQLLIYEVSNRFSGVPDRFSGSGSGTDFTLKISRVEAEDVGIYYCMQSIQIPWTFGQGTRVEIK
Response line: 26
